pIC50 for assorted molecules
# SYSTEM_UNDER_TEST: purified DHFR of strain Sp1/1 of Streptococcus pneumoniae (Streptococcus pneumoniae serotype 4, UniProt Q54801)
# Sequence (Q54801 1-168 I100L): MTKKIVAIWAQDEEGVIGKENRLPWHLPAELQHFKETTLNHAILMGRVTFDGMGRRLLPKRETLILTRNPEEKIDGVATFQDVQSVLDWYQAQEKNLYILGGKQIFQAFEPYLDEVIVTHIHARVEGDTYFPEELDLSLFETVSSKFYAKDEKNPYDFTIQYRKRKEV
# Format: biochemical
# MEASUREMENT_SETUP: Table 2; IC50 against purified DHFR of strain Sp1/1
A value of pIC50 is the negative decimal logarithm of a concentration given in moles per litre.

Data point: CCOc1cc(Cc2cnc(N)nc2N)cc(OS(=O)(=O)N(C)CC)c1-c1ccc(O)cc1 [Example 20-g] ; pIC50 = 8.14
